Recorded values, source patent US9737517B2.

- TEST NAME: Pharmacokinetics study in rats (gavage and intravenous)
- Type: in vivo, SD rats
- RUN PARAMETERS: male, SD, plasma; rat, intravenous injection 10 mg/kg; read-out: volume distribution stead state Vss
MEASURED ENDPOINT: Vd (L/kg)
Note: unit L/kg is implicit; provide only the numeric part.

Vd reading for COc1cc2c(cc1OC)CN1CCc3cc4c(cc3[C@@H]1C2)OCO4 : 3.49

* * *

- TEST NAME: Pharmacokinetics study in rats (gavage and intravenous)
- Type: in vivo, SD rats
- RUN PARAMETERS: male, SD, rat, plasma, iv, 10 mg/kg, intravenous injection 10 mg/kg, read-out: AUC0-t
MEASURED ENDPOINT: AUC0-t (ng·h/mL)
Note: unit ng·h/mL is implicit; provide only the numeric part.

AUC0-t reading for COc1cc2c(cc1OC)CN1CCc3cc4c(cc3[C@@H]1C2)OCO4 [DC037009] : 4200
